Numbers sourced from patent US6951856B2.

biological target: human recombinant ETA receptors (Homo sapiens); experiment: Inhibition of [125I]ET-1 binding to membranes from CHO cells carrying human ETA receptors; settings: CHO cell membranes, 8 pM [125I]ET-1, 2 h at 20° C.
Sequence (P25101 21-427): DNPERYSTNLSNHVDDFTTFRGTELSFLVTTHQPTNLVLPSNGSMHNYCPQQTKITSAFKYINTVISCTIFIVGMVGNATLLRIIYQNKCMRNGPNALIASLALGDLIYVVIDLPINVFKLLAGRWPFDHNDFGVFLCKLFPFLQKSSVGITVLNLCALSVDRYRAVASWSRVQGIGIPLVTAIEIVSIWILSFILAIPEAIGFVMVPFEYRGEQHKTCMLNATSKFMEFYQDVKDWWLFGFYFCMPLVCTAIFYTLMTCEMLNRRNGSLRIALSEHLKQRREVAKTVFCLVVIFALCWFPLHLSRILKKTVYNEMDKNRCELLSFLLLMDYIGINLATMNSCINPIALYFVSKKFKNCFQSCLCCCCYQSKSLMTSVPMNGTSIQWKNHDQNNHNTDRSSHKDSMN
MEASUREMENT_NAME: log10 IC50 (log10 of the value in nM)
Response schema: value (number) is log10 of IC50 in units of nM.

Solved entries (count: 5):
[[record]]
compound = "Cc1ccc(-c2c(NS(=O)(=O)/C=C/c3ccccc3)nc(C3CC3)nc2OCCOc2ncc(Br)cn2)cc1"
measurement_name = "log10 IC50"
quantitative_readout = 0.76

[[record]]
compound = "Cc1ccc(-c2c(NS(=O)(=O)/C=C/c3ccccc3)nc(N3CCOCC3)nc2OCCOc2ncc(Br)cn2)cc1"
measurement_name = "log10 IC50"
quantitative_readout = 1.15

[[record]]
compound = "COc1ccccc1Oc1c(NS(=O)(=O)/C=C/c2ccccc2)ncnc1OCCOc1ncc(SC)cn1"
measurement_name = "log10 IC50"
quantitative_readout = 1.61

[[record]]
compound = "O=S(=O)(/C=C/c1ccccc1)Nc1ncnc(OCCOc2ncc(Cl)cn2)c1-c1ccc(Br)cc1"
measurement_name = "log10 IC50"
quantitative_readout = 0.59

[[record]]
compound = "Cc1ccc(-c2c(NS(=O)(=O)/C=C/c3cccs3)nc(-c3ncccn3)nc2OCCOc2ncc(Br)cn2)cc1 [Example 145]"
measurement_name = "log10 IC50"
quantitative_readout = 0.96


What does the record list as log10 IC50 for "Cc1ccc(-c2c(NS(=O)(=O)/C=C/c3cccs3)ncnc2OCCOc2ccc(Br)cn2)cc1" ?
1.23

What does the record list as log10 IC50 for "COc1ccccc1Oc1c(NS(=O)(=O)/C=C/c2ccsc2)nc(-c2ccncc2)nc1OCCOc1ncccn1" ?
0.87
